Here the recorded EC50 is given for each entry.
System: HT-29
protocol: Antiproliferative activity against human HT-29 cells after 48 hrs by MTT assay
Type: functional, cell-based
protocol_conditions: HT-29, 48 h
Respond with the bare value in µM.

| molecule | unit_annotation | EC50 |
| --- | --- | --- |
| COc1ccccc1-n1c(SCC(=O)Nc2nc3ccc(C)cc3s2)nc2c(c1=O)SCC2 | µM | 0.34 |

Proceeding to the next molecule to report its EC50.
Give EC50 for Cc1ccc2nc(NC(=O)CSc3nc4c(c(=O)n3-c3ccccc3)SCC4)sc2c1 tested on HT-29.
4.67

====

Listing of entries alongside the reported pIC50.
assay_system: Casein kinase I isoform delta (Rattus norvegicus, UniProt Q06486)
Sequence (Q06486 whole entry, the tested form may be a part, canonical isoform): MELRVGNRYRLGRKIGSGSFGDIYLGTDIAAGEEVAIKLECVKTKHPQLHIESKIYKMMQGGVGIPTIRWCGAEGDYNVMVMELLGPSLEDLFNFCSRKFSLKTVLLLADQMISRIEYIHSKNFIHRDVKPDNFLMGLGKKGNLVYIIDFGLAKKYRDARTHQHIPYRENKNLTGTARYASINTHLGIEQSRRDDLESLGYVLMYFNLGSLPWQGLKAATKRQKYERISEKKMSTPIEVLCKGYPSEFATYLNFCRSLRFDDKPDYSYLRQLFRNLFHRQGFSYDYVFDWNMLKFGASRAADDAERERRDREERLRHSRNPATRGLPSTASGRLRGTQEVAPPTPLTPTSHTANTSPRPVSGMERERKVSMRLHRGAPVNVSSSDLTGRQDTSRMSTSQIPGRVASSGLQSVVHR
protocol: Inhibition of rat recombinant CK1delta kinase domain using alpha-casein as substrate after 30 mins in presence of [gamma-32P]-ATP by Cherenkov counting method
Formally, pIC50 is defined as -log10 of the concentration c, with c in mol/L.

The examples below pair each entry with its known result.
| molecule | pIC50 |
| --- | --- |
| COc1cccc(Cn2c(SCC(=O)Nc3nc4ccc(C(F)(F)F)cc4s3)nc3c(c2=O)SCC3)c1OC | 6.64 |
| Cc1ccc2nc(NC(=O)CSc3nc4c(c(=O)n3-c3ccc(F)cc3)SCC4)sc2c1 | 6.26 |
| Cc1ccc2nc(NC(=O)CSc3nc4c(c(=O)n3Cc3ccccc3)SCC4)sc2c1 | 6.38 |
| COc1ccccc1-n1c(SCC(=O)Nc2nc3ccc(C)cc3s2)nc2c(c1=O)SCC2 | 5.99 |
| COc1ccc(Cn2c(SCC(=O)Nc3nc4ccc(C(F)(F)F)cc4s3)nc3c(c2=O)SCC3)cc1 | 7.05 |
| Cc1ccc2nc(NC(=O)CSc3nc4c(c(=O)n3-c3ccccc3)SCC4)sc2c1 | 6.49 |
| O=C(CSc1nc2c(c(=O)n1-c1ccccc1)SCC2)Nc1nc2ccc(C(F)(F)F)cc2s1 | 6.40 |

We now examine a further compound.
Answer with reported pIC50 of O=C(CSc1nc2c(c(=O)n1Cc1ccccc1)SCC2)Nc1nc2ccc(C(F)(F)F)cc2s1
6.28
